Collected set of pIC50 measured with Steroid 17-alpha-hydroxylase/17,20 lyase (Homo sapiens) across studies.
pIC50: −log10 of the molar value.
readoutName: pIC50

Solved entries (count: 2):
testSmiles	pIC50
COc1cc(NS(C)(=O)=O)ccc1-c1cncnc1C1CCCCC1	7.00
Fc1ccc(-n2ncc3c(-c4cncnc4OCC(F)(F)F)ccnc32)cc1	6.91

(A) Nc1ncncc1-c1ccnc2c1cnn2-c1ccc(F)c(Cl)c1
(B) Cc1ccncc1-c1ccnc2c1cnn2C1CCOCC1
(C) Cc1ccncc1-c1ccnc2c1cnn2-c1ncccc1Br
(D) Cn1cncc1-c1ccnc2c1cnn2-c1ccc(F)cc1
Returns the items ordered by pIC50, from maximum to minimum. Provide the labels, sequenced as the question asks.
C, D, B, A

###

Collected set of IC50 measured with Steroid 17-alpha-hydroxylase/17,20 lyase (Homo sapiens, UniProt P05093) across studies.
readoutName: IC50 (nM)

Solved entries (count: 4):
testSmiles	unitAbbreviation	IC50
Cc1ccncc1-c1ccnc2c(-c3nccs3)csc12	nM	76
NS(=O)(=O)c1cccc(-n2ncc3c(-c4cncc5ccccc45)ccnc32)c1	nM	23
COc1cc(NS(C)(=O)=O)ccc1-c1cncn2cccc12	nM	120
Cc1cc(NS(C)(=O)=O)ccc1-c1cnccc1OCC(F)(F)F	nM	1.4

(a) COc1cc(NS(C)(=O)=O)ccc1-c1cncc2ccccc12
(b) Fc1ccc(-c2noc3c(-c4cncn5cccc45)cccc23)cc1
Kindly identify which of a and b has the larger recorded IC50 value. In your reply, give the label of the chosen option.
b
(b: 192 nM, a: 6.6 nM)

###

pIC50: −log10 of the molar value.
Collected set of pIC50 measured with Steroid 17-alpha-hydroxylase/17,20 lyase (Homo sapiens) across studies.
readoutName: pIC50

Solved entries (count: 3):
testSmiles	observedMeasurement
COc1cc(NS(=O)(=O)CC(F)(F)F)ccc1-c1cncnc1C	6.80
Cc1ccncc1-c1cccc2c1ncn2-c1cccc(C(F)(F)F)n1	7.40
COc1ccccc1-c1cnc2c(-c3cnccc3C)ccnn12	7.80

(1) CS(=O)(=O)Nc1ccc(-c2cncc3ccccc23)c(OC(F)(F)F)c1
(2) Fc1ccc(-c2cnc3c(-c4cccnc4)ccnn23)cc1
(3) Cc1ccncc1-c1ccnn2c(-c3cccc(Cl)c3)cnc12
// smallest pIC50 at index 0, largest at the end Provide the labels, sequenced as the question asks.
2, 3, 1
(2: 6.28, 3: 7.01, 1: 8.49)

(1) Cc1ccncc1-c1cccc2c(OCc3ccc4ccccc4c3)noc12
(2) CCS(=O)(=O)Nc1ccc(-c2cncc3ccccc23)c(OC)c1
(3) Cc1cc(C)cc(-c2cnc3c(-c4cnccc4C)ccnn23)c1
(4) COc1cc(NS(C)(=O)=O)ccc1-c1cnccc1C
// smallest pIC50 at index 0, largest at the end Provide the labels, sequenced as the question asks.
1, 3, 2, 4

(A) N#Cc1ccc2cc(-c3cccnc3)ccc2c1
(B) CS(=O)(=O)Nc1ccc(-c2cncc3ccccc23)c(C(F)(F)F)c1
Dear colleague, could you let me know whether A or B has the lower recorded pIC50? Thanks. In your reply, give the label of the chosen option.
A
(A: 6.16, B: 7.32)
